Could you please report measured In vitro activity compared with native peptide (%) vs. Glucagon for the items listed next?
# measured target: human GCG receptor (human, UniProt P47871 26-477)
# Sequence (P47871 26-477): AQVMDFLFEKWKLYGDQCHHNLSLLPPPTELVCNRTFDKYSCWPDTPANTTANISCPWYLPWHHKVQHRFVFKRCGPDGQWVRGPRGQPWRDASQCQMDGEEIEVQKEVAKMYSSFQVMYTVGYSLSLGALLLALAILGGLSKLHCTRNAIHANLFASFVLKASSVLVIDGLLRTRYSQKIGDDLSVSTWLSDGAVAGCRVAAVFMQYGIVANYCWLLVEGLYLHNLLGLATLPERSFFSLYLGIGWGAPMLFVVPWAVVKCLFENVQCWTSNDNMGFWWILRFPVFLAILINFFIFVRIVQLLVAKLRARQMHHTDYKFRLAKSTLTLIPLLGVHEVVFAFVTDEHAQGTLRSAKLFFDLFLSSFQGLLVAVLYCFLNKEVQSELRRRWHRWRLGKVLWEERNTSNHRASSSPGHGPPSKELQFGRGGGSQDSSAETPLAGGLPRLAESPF
# protocol notes: cell-based or functional assay
Bridges are numbered along the chain shown (N, C = ends). Where no end group is shown, it is not given here. [ ]: non-standard residue; d: D form. The star is where a group is joined. Acetyl(2-(4-imidazolyl)) = O=C(Cc1c[nH]cn1)*; Aib = CC(C)(N)C(=O)O
Give the value, in units of %, as a plain number.

For reference, reported In vitro activity compared with native peptide (%) vs. Glucagon for Y[Aib]QGTFTSDYSKYLDEKRAKEFVQWLLDCHPSSGQPPPS (bridge 16-20) [Triple agonist of SEQ ID NO: 97] stands at 62.8

Briefly, In vitro activity compared with native peptide (%) vs. Glucagon measured for Y[Aib]QGTFTSDYSKYLDECRAKEFVQWLKNGGPSSGAPPPS (bridge 16-20) [Triple agonist of SEQ ID NO: 24] : 9.3

Sure, the documented In vitro activity compared with native peptide (%) vs. Glucagon for Y[Aib]QGTFTSDYSKCLDERAAKEFVQWLLDHHPSSGQPPPS (bridge 16-20) [Triple agonist of SEQ ID NO: 69] is 9.6

For reference, reported In vitro activity compared with native peptide (%) vs. Glucagon for Y[Aib]QGTFTSDYSKALDEKAAKEFVNWLLDQHPSSGQPPPSC (bridge 16-20) [Triple agonist of SEQ ID NO: 101] stands at 13.9

# In vitro activity compared with native peptide (%) vs. Glucagon of {Acetyl(2-(4-imidazolyl))}-[Aib]QGTFTSDYSKYLDEKRQKEFVQWLLDTC (bridge 15-19) [Triple agonist of SEQ ID NO: 82] = 1.1

Input Y[Aib]QGTFTSDYSKYLDEKRAKEFVQWLLDHHPSSGQPPPSC (bridge 16-20) [Triple agonist of SEQ ID NO: 42] . Output In vitro activity compared with native peptide (%) vs. Glucagon: 206

Reported In vitro activity compared with native peptide (%) vs. Glucagon for H[Aib]QGTFTSDYSKYLDEKACKDFVQWLLDGGPSSGAPPPS (bridge 16-20) [Triple agonist of SEQ ID NO: 32] was 1.7

Entry under test: H[Aib]EGTFTSDYSIAMDEIHQKDFVNWLLAQKC (bridge 16-20) [Triple agonist of SEQ ID NO: 79] . Its In vitro activity compared with native peptide (%) vs. Glucagon was 4.9

H[Aib]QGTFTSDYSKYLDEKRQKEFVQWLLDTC (bridge 16-20) [Triple agonist of SEQ ID NO: 52] has a reported In vitro activity compared with native peptide (%) vs. Glucagon of 7.5
